EXPERIMENTAL_TARGET: T1, human Claudin18.1 (CLDN18.1), full length, on cells (human, UniProt P56856 1-261)
T1 construct: HEK293-CLDN18.1 cells carry a fusion with green fluorescent protein (ZsGreen); CHO-K1-CLDN18.1 cells carry pcDNA3.1-CLDN18.1; The cell line is named under assay; also called CLDN18.1-FL; HEK293-CLDN18.1 cells
PROCEDURE_TEXT: cellular ELISA

| BINDER | binding result |
| --- | --- |
| 302CHI (antibody, V domains shown, chimeric with the constant region of human IgG1) VH: EVKLVESGGGLVQPGGSLKLSCAASGFTFSDYGMAWVRQAPRKGPEWVAFISNLAYSIYYADTVTGRFTISRENAKNTLYLEMSSLRSEDTAMYYCARLGYGNSFAYWGQGTLVTVSA VL: DIVMTQSPSSLTVTAGEKVTMSCKSSQSLLNSGNQKNYLTWYQQKPGQPPKLLIYWASTRESGVPDRFTGSGSGTDFTLTISSVQAEDLAVYYCQNDYSLPFTFGAGTKLELK | no binding |
| 303CHI (antibody, V domains shown, chimeric with the constant region of human IgG1) VH: EVKLVESGGGLVQPGGSLKLSCAASGFTFSRYGMAWVRQAPGKGPEWVAFISNSAYSIYYADTVTGRFTISRENAKNTLYLEMSSLRSEDTAMYYCARLGYGNSFAYWGQGTLVTVSA VL: DIVMTQSPSSLTVTAGEKVTMSCKSSQSLLNSGNQKNYLTWYQQKPGQPPKLLIYWGSTRESGVPDRFTGSGSGTDFTLTISSVQAEDLAVYYCQNDYSYPLTFGAGTKLELK | no binding |
| 312CHI (antibody, human IgG1, V domains shown, chimeric with the constant region of human IgG1) VH: EVKLVESGGGLVQPGGSLKLSCAASGFTFSRYGMAWVRQAPGKGPEWVAFISNSAYSIYYADTVTGRFTISRENAKNTLYLEMSSLRSEDTAMYYCARLGYGNSFAYWGQGTLVTVSA VL: DIVMTQSPSSLTVTAGEKVTMSCKSSQSLLNSGNQKNYLTWYQQKPGQPPKLLIYWASTRESGVPDRFTGSGSGTDFTLTISSVQAEDLAVYYCQNELFYPLTFGAGTKLELK | no binding |
